Tested on: wheat (Triticum aestivum)
Assay: Test A postemergence, visual plant response rating
Format: in vivo
Settings: Postemergence, 125 g ai/ha; 0 to 100 scale (0 no effect, 100 complete control)
Excerpt: […]
Please provide measured Wheat plant response rating for the entries that follow.
In your answer, state the number alone without any accompanying words.

Wheat plant response rating measured on CCn1nc(C)c(O)c(C(=NOC)c2cccc(Cl)c2)c1=O (mixture of isomers) = 10

The molecule listed as CO/N=C(/c1cc(C)ccc1C)c1c(O)c(C)nn(C)c1=O has a reported Wheat plant response rating of 10

Given item CON=C(c1c(O)c(C)nn(C)c1=O)c1cccc2sccc12 , the value recorded as its Wheat plant response rating is 0

// Wheat plant response rating lookup, molecule = CO/N=C(/c1cccc(F)c1)c1c(O)c(C)nn(C)c1=O , result: 0

Reported Wheat plant response rating ( CON=C(c1c(O)c(C)nn(C)c1=O)c1cccc2ccoc12 ) = 30

Reported Wheat plant response rating of Cc1nn(C)c(=O)c(C(=NOCC=CCl)c2ccc(F)c3ccccc23)c1O : 0

For reference, reported Wheat plant response rating for CO/N=C(/c1c(O)c(C)nn(C)c1=O)c1cccc2ccccc12 stands at 0

For this molecule ( CON=C(c1cccc(C#N)c1)c1c(O)c(C)nn(C)c1=O ), measured Wheat plant response rating is 0

So for C=CCO/N=C(/c1c(O)c(C)nn(C)c1=O)c1ccc(F)c2ccccc12 , the logged Wheat plant response rating turned out to be 40

====

Test system: barnyardgrass (Echinochloa crus-galli)
Test: Test D flooded paddy test, visual plant response rating
Format: in vivo
Details: 250 g ai/ha, scale 0 to 100 (0 no effect, 100 complete control), 13 to 15 d
Give Plant response rating, Barnyardgrass (Flood) for every item shown.
Answer with a bare number; do not write a unit.

Noted Plant response rating, Barnyardgrass (Flood) for CO/N=C(\c1cc(Cl)c(F)c(Cl)c1)c1c(O)c(C)nn(C)c1=O , tested on barnyardgrass (Echinochloa crus-galli): 0

Lab note: compound CO/N=C(/c1cccc(/C=C\Cl)c1)c1c(O)c(C)nn(C)c1=O tested on barnyardgrass (Echinochloa crus-galli); recorded Plant response rating, Barnyardgrass (Flood) was 0

Form: item CO/N=C(\c1ccc(Cl)c(Cl)c1)c1c(O)c(C)nn(C)c1=O ; test system barnyardgrass (Echinochloa crus-galli); Plant response rating, Barnyardgrass (Flood): 0

Recorded Plant response rating, Barnyardgrass (Flood) for CO/N=C(/c1c(O)c(C)nn(C)c1=O)c1cc(SC)cc2ccccc12 on barnyardgrass (Echinochloa crus-galli) was 0

Reported Plant response rating, Barnyardgrass (Flood) (barnyardgrass (Echinochloa crus-galli)) for entry Cc1nn(C)c(=O)c(C(=NOCC2CC2)c2cc(Cl)cc(Cl)c2Cl)c1O [Compound 293] is 0

Bench note, barnyardgrass (Echinochloa crus-galli): entry CCO/N=C(/c1c(O)cnn(C)c1=O)c1ccc(F)c2ccccc12 , its Plant response rating, Barnyardgrass (Flood) = 0

The value of Plant response rating, Barnyardgrass (Flood) recorded for CON=C(c1cc(Cl)cc(F)c1Cl)c1c(O)c(C)nn(C)c1=O when tested on barnyardgrass (Echinochloa crus-galli) reads 0

Form field Plant response rating, Barnyardgrass (Flood) for item C=CCO/N=C(/c1c(O)c(C)nn(C)c1=O)c1cccc2cc(Cl)ccc12 on barnyardgrass (Echinochloa crus-galli): 90

Field Plant response rating, Barnyardgrass (Flood) (system: barnyardgrass (Echinochloa crus-galli)) for entry C#CCO/N=C(\c1cccc(/C=C/Cl)c1)c1c(O)c(C)nn(C)c1=O = 0

Bench note, barnyardgrass (Echinochloa crus-galli): CO/N=C(\c1cc(F)cc(F)c1C)c1c(O)c(C)nn(C)c1=O , Plant response rating, Barnyardgrass (Flood) reads 0

The observed Plant response rating, Barnyardgrass (Flood) for Cc1nn(C)c(=O)c(C(=NOCC2CC2)c2cc(Cl)cc(Cl)c2Cl)c1O [Compound 182] when tested with barnyardgrass (Echinochloa crus-galli) stands at 0

Tested on barnyardgrass (Echinochloa crus-galli): CCO/N=C(\c1c(O)c(Cl)nn(C)c1=O)c1cc(Br)cc2ccccc12 . Observed Plant response rating, Barnyardgrass (Flood): 60

# lookup: CCO/N=C(\c1c(O)c(Cl)nn(C)c1=O)c1ccc(F)c2ccccc12 on barnyardgrass (Echinochloa crus-galli), Plant response rating, Barnyardgrass (Flood) = 20

Reading of Plant response rating, Barnyardgrass (Flood) for CCO/N=C(/c1c(O)c(C)nn(C)c1=O)c1cccc2cc(Cl)ccc12 with barnyardgrass (Echinochloa crus-galli): 10

Summary line: CCO/N=C(\c1c(O)c(C)nn(C)c1=O)c1cccc2cc(Cl)ccc12 , barnyardgrass (Echinochloa crus-galli), reported Plant response rating, Barnyardgrass (Flood) = 90

Hey, barnyardgrass (Echinochloa crus-galli) data for C#CCO/N=C(\c1cc(C)cc(Cl)c1)c1c(O)c(C)nn(C)c1=O : Plant response rating, Barnyardgrass (Flood) came out at 15

Tested system barnyardgrass (Echinochloa crus-galli); Plant response rating, Barnyardgrass (Flood) recorded for CO/N=C(/c1c(O)c(C)nn(C)c1=O)c1cccc2cc(Cl)ccc12 [Compound 159] was 0

Sample CCON=C(c1cc(Cl)cc(Br)c1)c1c(O)c(C)nn(C)c1=O [Compound 181] , system: barnyardgrass (Echinochloa crus-galli). Its Plant response rating, Barnyardgrass (Flood) is 0

Record for CCON=C(c1cc(Cl)cc(Br)c1)c1c(O)c(C)nn(C)c1=O [Compound 180] under target or system barnyardgrass (Echinochloa crus-galli): Plant response rating, Barnyardgrass (Flood) reported as 40

For the compound Cc1nn(C)c(=O)c(C(=NOC(C)C)c2cc(Cl)cc(Cl)c2Cl)c1O , the measured Plant response rating, Barnyardgrass (Flood) on barnyardgrass (Echinochloa crus-galli) was 60
